Recorded below: AC50, system Adenosine receptor A2a (Homo sapiens). Further: assay procedure not described here.

Item CC(=O)[C@@]1(O)CC[C@H]2[C@@H]3C=C(Cl)C4=CC(=O)[C@@H]5C[C@@H]5[C@]4(C)[C@H]3CC[C@@]21C [CYPROTERONE] has what recorded AC50?
> 10 µM

Next: CCCCCCCCCCCCCCCCCCCCCC(=O)Nc1ccn([C@@H]2O[C@H](CO)[C@@H](O)[C@@H]2O)c(=O)n1 [ENOCITABINE]
> 30 µM

Next: Oc1ccc2c(c1)[C@@]13CCCC[C@@]1(O)[C@@H](C2)N(CC1CCC1)CC3 [BUTORPHANOL]
> 30 µM

Next: Cn1cnc2c(F)c(Nc3ccc(Br)cc3Cl)c(C(=O)NOCCO)cc21 [SELUMETINIB]
> 30 µM

Next: CCCCCC(=O)O[C@]1(C(C)=O)CC[C@H]2[C@@H]3CCC4=CC(=O)CC[C@]4(C)[C@H]3CC[C@@]21C [HYDROXYPROGESTERONE CAPROATE]
> 30 µM

Next: C=C1/C(=C\C=C2/CCC[C@]3(C)[C@@H]([C@H](C)/C=C/[C@@H](O)C4CC4)CC[C@@H]23)C[C@@H](O)C[C@@H]1O [CALCIPOTRIENE]
> 30 µM

---

Recorded below: AC50, system UniProtKB P46663.
Sequence (P46663 whole entry): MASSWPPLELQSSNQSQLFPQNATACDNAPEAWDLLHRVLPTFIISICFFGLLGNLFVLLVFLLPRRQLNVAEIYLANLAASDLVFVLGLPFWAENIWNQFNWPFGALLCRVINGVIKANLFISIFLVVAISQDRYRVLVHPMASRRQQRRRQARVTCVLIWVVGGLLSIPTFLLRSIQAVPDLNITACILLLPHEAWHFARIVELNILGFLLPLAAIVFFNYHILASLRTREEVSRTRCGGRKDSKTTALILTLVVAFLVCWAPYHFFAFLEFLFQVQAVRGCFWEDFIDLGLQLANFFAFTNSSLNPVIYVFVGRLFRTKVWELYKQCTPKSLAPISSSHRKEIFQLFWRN

Item "COc1ccccc1Oc1c(NS(=O)(=O)c2ccc(C(C)(C)C)cc2)nc(-c2ncccn2)nc1OCCO" has what recorded AC50?
> 30 µM

Next: C=CC[C@@H]1/C=C(\C)C[C@H](C)C[C@H](OC)[C@H]2O[C@@](O)(C(=O)C(=O)N3CCCC[C@H]3C(=O)O[C@H](/C(C)=C/[C@@H]3CC[C@@H](O)[C@H](OC)C3)[C@H](C)[C@@H](O)CC1=O)[C@H](C)C[C@@H]2OC [TACROLIMUS ANHYDROUS]
> 30 µM

Next: CC(=O)OCC(=O)[C@@]1(O)[C@H](C)C[C@H]2[C@@H]3CCC4=CC(=O)C=C[C@]4(C)[C@@]3(F)[C@@H](O)C[C@@]21C [DEXAMETHASONE ACETATE]
> 30 µM

Next: CC(N)C(O)c1ccccc1 (centres undefined)
> 30 µM

Next: CC(CCc1ccc(O)cc1)NCCc1ccc(O)c(O)c1 (centres undefined)
> 30 µM

Next: CC(C)N(CCC(C(N)=O)(c1ccccc1)c1ccccn1)C(C)C (centres undefined) [DISOPYRAMIDE]
> 30 µM

Next: "CCCN(CCC)C(=O)Cc1c(-c2ccc(Cl)cc2)nc2ccc(Cl)cn12"
> 10 µM

Next: "N[C@@H](CC(=O)N1CCn2c(nnc2C(F)(F)F)C1)Cc1cc(F)c(F)cc1F"
> 10 µM

Next: "CO[C@H]1/C=C/O[C@@]2(C)Oc3c(C)c(O)c4c(O)c(c(/C=N/N5CCN(C)CC5)c(O)c4c3C2=O)NC(=O)/C(C)=C\C=C\[C@H](C)[C@H](O)[C@@H](C)[C@@H](O)[C@@H](C)[C@H](OC(C)=O)[C@@H]1C"
14.2 µM

---

tgt: Muscarinic acetylcholine receptor M2 (Homo sapiens)
Sequence (P08172 whole entry): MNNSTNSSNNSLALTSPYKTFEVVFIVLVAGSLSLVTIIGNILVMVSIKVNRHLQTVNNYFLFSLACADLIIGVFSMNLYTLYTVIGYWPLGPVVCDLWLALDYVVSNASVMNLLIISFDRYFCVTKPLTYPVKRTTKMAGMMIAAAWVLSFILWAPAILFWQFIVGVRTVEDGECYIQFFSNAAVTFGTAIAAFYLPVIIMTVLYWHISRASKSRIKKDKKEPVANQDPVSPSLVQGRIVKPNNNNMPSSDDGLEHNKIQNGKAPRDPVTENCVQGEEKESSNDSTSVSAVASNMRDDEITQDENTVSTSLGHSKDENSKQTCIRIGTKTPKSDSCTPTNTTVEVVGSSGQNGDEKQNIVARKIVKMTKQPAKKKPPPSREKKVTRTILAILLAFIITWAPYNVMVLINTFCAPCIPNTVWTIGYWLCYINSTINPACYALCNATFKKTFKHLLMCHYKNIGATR
measure: AC50

Item COc1cc2c(cc1OC)CC(=O)N(CCCN(C)C[C@H]1Cc3cc(OC)c(OC)cc31)CC2 [IVABRADINE] has what recorded AC50?
3.35 µM

Next: CC[C@@H]([C@H](C)O)n1ncn(-c2ccc(N3CCN(c4ccc(OC[C@@H]5CO[C@@](Cn6cncn6)(c6ccc(F)cc6F)C5)cc4)CC3)cc2)c1=O [POSACONAZOLE]
> 30 µM

Next: CCOC(=O)C1=C[C@@H](OC(CC)CC)[C@H](NC(C)=O)[C@@H](N)C1 [OSELTAMIVIR]
> 30 µM

Next: O=C(O)CO [GLYCOLIC ACID]
> 30 µM

Next: CCN(CCCc1ccccc1)CCCc1ccccc1 [ALVERINE]
0.134 µM

Next: C[C@@H]1C[C@H]2[C@@H]3CCC4=CC(=O)C=C[C@]4(C)[C@@]3(Cl)[C@@H](O)C[C@]2(C)[C@@]1(OC(=O)c1ccco1)C(=O)CCl [MOMETASONE FUROATE]
> 30 µM

Next: NC(=O)OCC(O)COc1ccc(Cl)cc1 (stereo not drawn) [CHLORPHENESIN CARBAMATE]
> 30 µM

Next: C#C[C@]1(O)CC[C@H]2[C@@H]3CCC4=CC(=O)CC[C@@H]4[C@H]3C(=C)C[C@@]21CC [ETONOGESTREL]
> 30 µM

Next: O=C1/C(=C2\Nc3ccc(S(=O)(=O)O)cc3C2=O)Nc2ccc(S(=O)(=O)O)cc21 [INDIGOTINDISULFONATE]
> 30 µM

Next: O=[N+]([O-])c1ccc(O)c2ncccc12 [NITROXOLINE]
> 30 µM

Next: CC(N)Cc1ccc(O)cc1 (stereo not drawn) [HYDROXYAMPHETAMINE]
> 30 µM

Next: N[C@@H](CO)C(=O)O [SERINE]
> 30 µM

Next: C=CCN1CC[C@]23CCCC[C@H]2[C@H]1Cc1ccc(O)cc13 [LEVALLORPHAN]
8.91 µM

Next: Cc1ccccc1C(=O)Nc1ccc(C(=O)N2CCCC(N(C)C)c3ccccc32)cc1 (stereo not drawn) [MOZAVAPTAN]
> 30 µM

Next: Cc1c(N(C)CS(=O)(=O)O)c(=O)n(-c2ccccc2)n1C [METAMIZOLE]
> 30 µM

Next: CC[C@H]1OC(=O)[C@H](C)C(=O)[C@H](C)[C@@H](O[C@@H]2O[C@H](C)C[C@H](N(C)C)[C@H]2O)[C@](C)(OC)C[C@@H](C)C(=O)[C@H](C)[C@H]2N(CCCCn3cnc(-c4cccnc4)c3)C(=O)O[C@]12C [TELITHROMYCIN]
> 30 µM

Next: "CC(C)N(CCNC(=O)CN1CCCC1=O)C(C)C"
> 30 µM

Next: Cc1onc(-c2ccccc2)c1-c1ccc(S(N)(=O)=O)cc1 [VALDECOXIB]
> 30 µM

Next: OC[C@@H](O)[C@@H](O)[C@H](O)[C@@H](O)CO [SORBITOL]
> 30 µM

Next: CN(CC1(C)CCCO1)S(=O)(=O)c1ccc(Cl)c(S(N)(=O)=O)c1 (stereo not drawn) [MEFRUSIDE]
> 30 µM

Next: CCCN(CCC)C(=O)Cc1c(-c2ccc(Cl)cc2)nc2ccc(Cl)cn12 [ALPIDEM]
> 30 µM

Next: Nc1c2ccccc2nc2ccccc12 [AMINACRINE]
4.27 µM

Next: C[C@H]1O[C@@H](n2cc(F)c(=O)[nH]c2=O)[C@H](O)[C@@H]1O [DOXIFLURIDINE]
> 30 µM

Next: COc1cc2nccc(Oc3ccc(NC(=O)C4(C(=O)Nc5ccc(F)cc5)CC4)cc3)c2cc1OC [CABOZANTINIB]
9.32 µM

Next: CN(C)CCOC(c1ccccc1)c1ccc(Br)cc1 (stereo not drawn) [BROMODIPHENHYDRAMINE]
1.42 µM

Next: COc1ccc(CN(CCN(C)C)c2ccccn2)cc1 [PYRILAMINE]
8.61 µM

Next: Nc1ccc(C(=O)Oc2ccccc2)c(O)c1 [PHENYL AMINOSALICYLATE]
> 30 µM

Next: CC(=O)Oc1cc(C(F)(F)F)ccc1C(=O)O [TRIFLUSAL]
> 30 µM

Next: CC[C@@]1(O)C(=O)OCc2c1cc1n(c2=O)Cc2cc3c([N+](=O)[O-])cccc3nc2-1 [RUBITECAN]
> 30 µM

Next: C[N+](C)(C)C[C@H](O)CC(=O)[O-] [LEVOCARNITINE]
> 30 µM

Next: CC[C@H](C)C[C@H](C)CCCCCCCCC(=O)N[C@H]1C[C@@H](O)[C@@H](NCCN)NC(=O)[C@@H]2[C@@H](O)CCN2C(=O)[C@H]([C@H](O)CCN)NC(=O)[C@H]([C@H](O)[C@@H](O)c2ccc(O)cc2)NC(=O)[C@@H]2C[C@@H](O)CN2C(=O)[C@H]([C@@H](C)O)NC1=O [CASPOFUNGIN]
10.8 µM

Next: CN1C(C(=O)Nc2ccccn2)=C(O)c2ccccc2S1(=O)=O [PIROXICAM]
> 30 µM

Next: Cc1ncc(COP(=O)(O)O)c(C=O)c1O [PYRIDOXAL PHOSPHATE ANHYDROUS]
> 30 µM
